Some molecules, each annotated with its measured TGI.
Test system: SW-620 colon
Test: NCI tumour cell line growth inhibition, 48 h
Your answer is read as µM, so omit the unit and give the number.

Use the examples below as a reference point.
Molecule	Quantity measured	Recorded measurement
O=C1/C(=C/c2ccccc2)CN(C(=O)CCN2CCC(=NO)CC2)C/C1=C\c1ccccc1	TGI	1.3
CC1CCC2C(C)(C)CC3(C)CCC1C23O (configuration not stated)	TGI	30.2
CCOc1cc(F)c([N+](=O)[O-])cc1[N+](=O)[O-]	TGI	3.3
O=c1n(-c2ccc(Cl)c(Cl)c2)c(=O)n(-c2ccc(Cl)c(Cl)c2)c(=O)n1-c1ccc(Cl)c(Cl)c1	TGI	10.2
Nc1n[nH]c2cccc(C#Cc3cccc(NC(=O)c4ccc(N5CCOCC5)c(C(F)(F)F)c4)c3)c12	TGI	5.95

Ask: Which TGI is reported for this molecule? `CC1(C)Cc2c(cnn2-c2ccc(C(F)(F)F)cc2)-c2nc(-c3ccc(O)cc3)[nH]c21`
Result: 51.5

Ask: Same lookup for `CN(C)CCn1c(=O)c2ccc(NCCCN(C)CCCNc3ccc4c(=O)n(CCN(C)C)c(=O)n5c6ccccc6c(=O)c3c45)c3c(=O)c4ccccc4n(c1=O)c23` , please.
Result: 0.231

----------
System: BT-549 breast
Assay: NCI tumour cell line growth inhibition, 48 h; in the data active means GI50 below about 0.43 µM; inactive means the rest
Answer with one of the outcomes active, inactive

Worked examples, 5 compounds total:
Structure	Classification
COc1cccc2[nH]c3c4c(c5c(c3c12)C(=O)N(CN1CCN(C)CC1)C5=O)CCC4	inactive
CN[C@@H](C)C(=O)N[C@H]1CCS[C@H]2CC(C)(C)[C@@H](C(=O)N[C@H]3c4ccccc4C[C@H]3OCC#CC#CCO[C@@H]3Cc4ccccc4[C@@H]3NC(=O)[C@H]3N4C(=O)[C@@H](NC(=O)[C@H](C)NC)CCS[C@H]4CC3(C)C)N2C1=O	active
Oc1c(Br)cc(Br)c2ccc(Cn3cc(-c4ccc(C(F)(F)F)cc4)nn3)nc12	inactive
OCCCCC#Cc1ccccc1C#Cc1ccccn1	inactive
CNC(=O)c1ccccc1Nc1cc(Nc2ccc(N3CCOCC3)cc2OC)ncc1C(F)(F)F	inactive

Ask: I would be grateful if you could indicate the recorded call for `CSc1nc(-c2cc3ccccc3o2)cc(-c2ccc(Cl)cc2)c1C#N` .
Result: inactive

Ask: Same lookup for `CCOc1cc(F)c([N+](=O)[O-])cc1[N+](=O)[O-]` , please.
Result: inactive

----------
Test system: SNB-75 CNS
Assay: NCI tumour cell line growth inhibition, 48 h; in the data active = GI50 below about 0.43 µM; inactive = the rest
Answer with one of the outcomes yes for active, no for inactive

> print(dat)
                                  structure  classification
1  O=C(c1ccc(Cl)c(Cl)c1)N1CCN(C(=O)c2ccc(Cl)c(Cl)c2)C1=S              no
2  COc1ccc(/C(C)=C(\c2ccc(Cl)cc2)c2ccc(OCCN3CCCCC3)cc2)cc1              no
3              NC(N)=NN=C(c1ccccc1)c1ccccc1              no
4  COc1cc(Nc2ccnc(NCCNc3ccnc4cc(Cl)ccc34)n2)cc(OC)c1              no

Ask: I would be grateful if you could indicate the recorded call for `COC1=C(OC)C(=O)C(CCCCCCCCCC[P+](c2ccccc2)(c2ccccc2)c2ccccc2)=C(C)C1=O` .
Result: yes

----------
Tested on: PC-3 prostate
Test: NCI tumour cell line growth inhibition, 48 h
Some compounds, each annotated with its measured TGI.

Use the examples below as a reference point.
> print(dat)
                                  structure  recorded.measurement
1     Clc1cc(OC23CC4CC(CC(C4)C2)C3)nc(Cl)n1              > 100 µM
2  CC(C)(CNC(=O)/C(Cl)=C(/Cl)C(=O)O)CNC(=O)/C(Cl)=C(/Cl)C(=O)O              > 100 µM

From here, focus on the item given below.
Ask: Which TGI is reported for this compound? `O=C1/C(=C/c2ccccc2)CN(C(=O)CCN2CCC(=NO)CC2)C/C1=C\c1ccccc1`
Result: 3.87 µM

----------
Some compounds, each annotated with its measured TGI.
Test system: A498 renal
Assay: NCI tumour cell line growth inhibition, 48 h

Use the examples below as a reference point.
> print(dat)
                                   compound  tested.system  quantity.measured  recorded.measurement
1  CCOC(=O)C(COS(C)(=O)=O)(COS(C)(=O)=O)C(=O)OCC     A498 renal                TGI              > 100 µM
2  COC(=O)C1C(OS(=O)(=O)O)CCC2CN3CCc4c([nH]c5ccccc45)C3CC21 (stereo unspecified)     A498 renal                TGI              > 100 µM
3  CC(=O)OCC1OC(N2C(=O)NC(=O)C3C=C4CCCCC4=CC32)C(OC(C)=O)C1OC(C)=O (stereo unspecified)     A498 renal                TGI              > 100 µM
4  O=C(c1ccc(Cl)c(Cl)c1)N1CCN(C(=O)c2ccc(Cl)c(Cl)c2)C1=S     A498 renal                TGI                 36 µM
5      CN(CCCN=C=S)CCCN1c2ccccc2CCc2ccccc21     A498 renal                TGI               3.07 µM

Ask: Which TGI is reported for this compound? `CNC(=O)c1ccccc1Nc1cc(Nc2ccc(N3CCOCC3)cc2OC)ncc1C(F)(F)F`
Result: 10.5 µM

Ask: Same lookup for `Clc1ccc(-c2nnc3c4nnc(-c5ccc(Cl)cc5Cl)n4c4ccccc4n23)c(Cl)c1` , please.
Result: > 100 µM

Ask: Same lookup for `C[C@H]1[C@H](N2CCCC2)O[Si](C(C)(C)C)(C(C)(C)C)[C@@H]1C` , please.
Result: > 100 µM

----------
Tested on: M14 melanoma
Assay: NCI tumour cell line growth inhibition, 48 h
Some compounds, each annotated with its measured TGI.
Your answer is read as µM, so omit the unit and give the number.

Use the examples below as a reference point.
Compound	Tested system	TGI (µM)
C1C[OH+]CC[OH+]CC[OH+]CC[OH+]CC[OH+]CC[OH+]1.[Cl-].[V]	M14 melanoma	93.8
O=C1C=CC(O)(C#CCO)C=C1	M14 melanoma	44
COc1cc2c(c(OC)c1OC)-c1ccc(SC)c(=O)cc1[C@@H](NCc1ccccc1[N+](=O)[O-])CC2	M14 melanoma	0.21
COC(=O)C1=C(O)C(C(=O)OC)[C@@]2(O)[C@@H](C(=O)OC)C(c3ccc(OC(=O)/C=C/c4ccccc4)cc3)C[C@@H]1[C@@H]2C(=O)OC (stereo not given in full)	M14 melanoma	30.5
CCC[CH2][Sn]1([CH2]CCC)[O]CC(CN2CCCCC2)[O]1 (stereo not given)	M14 melanoma	1.33
O=C(c1ccc(Cl)c(Cl)c1)N1CCN(C(=O)c2ccc(Cl)c(Cl)c2)C1=S	M14 melanoma	37.9
Nc1n[nH]c2cccc(C#Cc3cccc(NC(=O)c4ccc(N5CCOCC5)c(C(F)(F)F)c4)c3)c12	M14 melanoma	2.2
O=C(CC1(O)C(=O)Nc2c(Cl)cc(Cl)cc21)c1ccc(Br)cc1 (stereo not given)	M14 melanoma	31.8

Ask: Which TGI is reported for this compound? `Clc1ccc2c(N3CCN(c4ccnc(NC5CCCCC5)n4)CC3)ccnc2c1`
Result: 3.42

Ask: Same lookup for `O=C(Nc1ncc(Cc2ccccc2)s1)c1sc2ccccc2c1Cl` , please.
Result: 32.2

Ask: Same lookup for `CCCC[C@H](NC(=O)[C@H]1CCCCN1C)C(=O)N(C)[C@H](C[C@@H](OC(C)=O)c1nc(C(=O)N[C@@H](Cc2ccccc2)C[C@H](C)C(=O)OCC)cs1)C(C)C` , please.
Result: 3.62

Ask: Same lookup for `COc1cc(C(c2c(O)c3ccccc3oc2=O)c2c(O)c3ccccc3oc2=O)ccc1O` , please.
Result: 34.7

Ask: Same lookup for C=C1CC(C)(COc2ccc3c(C)c(C)c(=O)oc3c2C)OC1=O (stereo not given) , please.
Result: 10.7

----------
Some molecules, each annotated with its measured TGI.
Tested on: MDA-MB-231 breast
Assay: NCI tumour cell line growth inhibition, 48 h

Use the examples below as a reference point.
Molecule	TGI
COc1cc(Nc2ccnc(NCCNc3ccnc4cc(Cl)ccc34)n2)cc(OC)c1	3.74 µM
S=C(S)NCCNC(=S)S.[Cu+2]	> 100 µM
COc1ccccc1N1C(=O)CSC1c1c[nH]c2ccccc12 (centres undefined)	> 100 µM

From here, focus on the item given below.
Ask: Which TGI is reported for this molecule? `CN[C@@H](C)C(=O)N[C@H]1CCS[C@H]2CC(C)(C)[C@@H](C(=O)N[C@H]3c4ccccc4C[C@H]3OCC#CC#CCO[C@@H]3Cc4ccccc4[C@@H]3NC(=O)[C@H]3N4C(=O)[C@@H](NC(=O)[C@H](C)NC)CCS[C@H]4CC3(C)C)N2C1=O`
Result: 0.0239 µM
